Molecular target: T1, O12
T1 chain: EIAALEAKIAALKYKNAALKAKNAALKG
Experiment: two-hybrid library CC0;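 note: natural log of median RNA to DNA barcode read ratio; higher means stronger binding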
Conditions: mean of both orientations
In this section, each of the binders is paired with its reported interaction score.
observation_type: interaction score

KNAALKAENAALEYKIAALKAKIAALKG [O10] | -2.82
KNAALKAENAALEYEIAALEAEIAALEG [O1] | -2.64
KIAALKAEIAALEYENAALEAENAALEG [O11] | 0.932
EIAALEAKIAALKYKNAALKAKNAALKG [O12] | -2.79

Value source: paper PMC10397247
